Consider the following compounds; for each one, report its Control.
# TEST SYSTEM: Excitatory amino acid transporter 2 (Rattus norvegicus)
# PROTOCOL DESCRIPTION: Attenuation of the sodium-dependent uptake of [3H]D-aspartate into synaptosomes prepared from rat forebrain at 250 uM.
# Assay type: subcellular
# CONDITIONS USED: Brain
Your answer should be a plain number; it is taken to be in %.

Prompt: Endpoint output: Control of "C=C(C)[C@H]1CN[C@H](C(=O)O)[C@H]1CC(=O)O" . Value?
Completion: 39

Prompt: Endpoint output: Control of O=C(O)[C@@H]1CN[C@H](C(=O)O)C1 (stereo in doubt; form 1) . Value?
Completion: 105

Prompt: Endpoint output: Control of O=C(O)[C@@H]1CCN[C@H]1C(=O)O (stereo in doubt; form 2) . Value?
Completion: 107

Prompt: Endpoint output: Control of "O=C(O)C[C@H]1CCN[C@@H]1C(=O)O" . Value?
Completion: 74

Prompt: Endpoint output: Control of O=C(O)[C@@H]1CN[C@@H](C(=O)O)C1 (stereo in doubt; form 2) . Value?
Completion: 54

Prompt: Endpoint output: Control of O=C(O)[C@H]1NC[C@H]1C(=O)O (stereo in doubt; form 1) . Value?
Completion: 53

Prompt: Endpoint output: Control of O=C(O)[C@@H]1CN[C@H]1C(=O)O (stereo in doubt; form 2) . Value?
Completion: 100

Prompt: Endpoint output: Control of O=C(O)[C@@H]1CN[C@H](C(=O)O)C1 (stereo in doubt; form 2) . Value?
Completion: 36

Prompt: Endpoint output: Control of O=C(O)[C@@H]1CCN[C@H]1C(=O)O (stereo in doubt; form 1) . Value?
Completion: 81

Prompt: Endpoint output: Control of CCOCC1[C@H](C(=O)O)CN[C@H]1C(=O)O (stereo partly drawn) . Value?
Completion: 55

Prompt: Endpoint output: Control of O=C(O)[C@@H]1CN[C@H]1C(=O)O (stereo in doubt; form 1) . Value?
Completion: 109

Prompt: Endpoint output: Control of O=C(O)[C@H]1NCC[C@H]1C(=O)O (stereo in doubt; form 2) . Value?
Completion: 108

Prompt: Endpoint output: Control of "O=C(O)C[C@@H]1CN[C@H](C(=O)O)C1" . Value?
Completion: 74

###

# TEST SYSTEM: Excitatory amino acid transporter 2 (Rattus norvegicus) (UniProt P31596)
# Sequence (P31596 whole entry): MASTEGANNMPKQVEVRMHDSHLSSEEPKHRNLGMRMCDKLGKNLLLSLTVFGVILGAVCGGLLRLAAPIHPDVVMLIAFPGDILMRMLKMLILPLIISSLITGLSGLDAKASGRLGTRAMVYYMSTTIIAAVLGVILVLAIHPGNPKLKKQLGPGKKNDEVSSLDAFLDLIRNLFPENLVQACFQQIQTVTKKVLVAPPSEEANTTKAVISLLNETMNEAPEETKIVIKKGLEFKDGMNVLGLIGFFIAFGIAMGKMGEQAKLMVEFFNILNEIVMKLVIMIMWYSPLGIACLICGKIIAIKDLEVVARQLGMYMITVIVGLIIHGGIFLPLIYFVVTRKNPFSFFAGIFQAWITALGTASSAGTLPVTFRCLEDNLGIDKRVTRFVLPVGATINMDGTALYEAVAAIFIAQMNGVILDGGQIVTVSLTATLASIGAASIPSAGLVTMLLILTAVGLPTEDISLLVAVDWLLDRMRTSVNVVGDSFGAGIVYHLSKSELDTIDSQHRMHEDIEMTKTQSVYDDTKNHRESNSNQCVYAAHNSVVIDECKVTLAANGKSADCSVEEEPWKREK
# PROTOCOL DESCRIPTION: Attenuation of the sodium-dependent uptake of [3H]D-aspartate into synaptosomes prepared from rat forebrain at 250 uM.
# Format: subcellular
# CONDITIONS USED: Brain
VALUE KIND: Control
Answer with the value and then the unit.

Prompt: Endpoint output: Control of O=C(O)[C@H]1NCC[C@H]1C(=O)O (stereo in doubt; form 1) . Value?
Completion: 38%

Prompt: Endpoint output: Control of CC(C)[C@H]1CN[C@H](C(=O)O)[C@H]1CC(=O)O (single isomer, unassigned) . Value?
Completion: 25%

Prompt: Endpoint output: Control of O=C(O)[C@H]1NC[C@H]1C(=O)O (stereo in doubt; form 2) . Value?
Completion: 98%

Prompt: Endpoint output: Control of O=C(O)[C@@H]1CN[C@@H](C(=O)O)C1 (stereo in doubt; form 1) . Value?
Completion: 0%

Prompt: Endpoint output: Control of O=C(O)CC1[C@H](C(=O)O)CN[C@H]1C(=O)O (stereo not given in full) . Value?
Completion: 95%
